Each recorded value in this set is attributed to the supplement of paper PMC8728848.

- STUDY_TARGET: Gal(a1-3)Gal(b1-4)Glc
- PROTOCOL_NOTES: glycan array binding signal (z-score within array); higher = stronger binding
- ASSAY_SETUP: glycan notation: IUPAC condensed, linker removed
The full list was thinned out, with the strongest signals kept by preference.
REPORTED_PROPERTY: glycan array binding signal (z-score)
Lab note: write the figure by itself, no unit.

State, in one line, measured glycan array binding signal (z-score) of DC-Sign-R (Homo sapiens), Q9H2X3 (protein) MSDSKEPRVQQLGLLEEDPTTSGIRLFPRDFQFQQIHGHKSSTGCLGHGALVLQLLSFMLLAGVLVAILVQVSKVPSSLSQEQSEQDAIYQNLTQLKAAVGELSEKSKLQEIYQELTQLKAAVGELPEKSKLQEIYQELTRLKAAVGELPEKSKLQEIYQELTRLKAAVGELPEKSKLQEIYQELTRLKAAVGELPEKSKLQEIYQELTELKAAVGELPEKSKLQEIYQELTQLKAAVGELPDQSKQQQIYQELTDLKTAFERLCRHCPKDWTFFQGNCYFMSNSQRNWHDSVTACQEVRAQLVVIKTAEEQNFLQLQTSRSNRFSWMGLSDLNQEGTWQWVDGSPLSPSFQRYWNSGEPNNSGNEDCAEFSGSGWNDNRCDVDNYWICKKPAACFRDE
-0.655
